tgt: T1, human RANK-L (human, UniProt O14788 140-317, limits assumed)
T1 construct: Soluble protein, used coated, biotinylated or labelled in ELISA, AlphaScreen, FMAT and Biacore; also called hRANK-L; soluble human RANK-L
T1 sequence (looked up): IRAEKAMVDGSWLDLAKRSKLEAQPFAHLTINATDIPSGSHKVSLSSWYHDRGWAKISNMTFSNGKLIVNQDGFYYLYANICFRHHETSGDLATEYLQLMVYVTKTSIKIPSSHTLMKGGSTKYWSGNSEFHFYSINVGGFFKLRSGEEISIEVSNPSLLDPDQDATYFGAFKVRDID
test: AlphaScreen, biotin-hRANK-L / RANK-huFc beads
observation_type: pIC50
Friendly reminder that pIC50 comes from taking -log10 of the concentration in mol/L.

INPUT: Query: pIC50; subject: RANKL11 (VHH, not shown: c-myc and His6 tags) VHH: EVQLVESGGGLVQAGGSLRLSCAASGRTFSSKTMGWFRQPPGNEREFVAAITPTSRTTYYADSVKGRFTISRDNAKNTVSLQMNSLKFEDTAAYYCVAVRRYGSPPHDGSSYEYWGQGTQVTVSS
OUTPUT: 8.93

INPUT: Please give the result for RANKL22 (VHH, also called 7D12; not shown: c-myc and His6 tags) VHH: EVQLVESGGGLMQTGGSLRLSCAASERTSRNYGMGWFRQAPGKEREFVAAITSAGGTTYYGDFVKGRFTISRDSAKYTVYLQMNSLKPEDTAVYWCAAKLQIGGRWHNLNDYGYRGQGTQVTVSS too.
OUTPUT: 8.52

INPUT: Likewise for RANKL12 (VHH, not shown: c-myc and His6 tags) VHH: EVQLVESGGGWMQAGGSLRLSCAASGRTFTMAWFRQAPGKEREFVAAITGSGRSTYYTDSVKGRFTISRDNAKNTAYLQMKSLKPEDTAVYYCAGLRGLGLEYDSAKSYSYWGQGTQVTVSS ?
OUTPUT: 9.20

INPUT: Same question for RANKL20 (VHH, not shown: c-myc and His6 tags) VHH: EVQLVESGGGLVQAGDSLRLSCAASGRTFTMGWFRQAPGTEREFVAAISGSGKITNYADSVKGRFTISRDHAKNTVFLQMDSLKPEDTAVYYCAGYLRSPYYSSFYDSAKYEYWGQGTQVTVSS please.
OUTPUT: 8.87

INPUT: Do the same for RANKL18 (VHH, not shown: small tags and cut ends) VHH: EVQLVESGGGLVQAGGSLRLSCAASGRTFSRSAMGWFRQAPGKEREFVGFITGSGGTTYYGESVKGRFTISRDNAQNPVYLQMNSLKPEDTAVYYCGVYRRTYISSTYSESSEYDYWGQGTQVTVSS please
OUTPUT: 9.84

INPUT: Next binder up: RANKL7 (VHH, not shown: c-myc and His6 tags) VHH: EVQLVESEGGPVQSGGSLRLSCAASGRTFSVSTIAWFRQAPGEGREFVAAIYPSGRNAYVADSVKGRFTISRDNAKKTVYLQMNSLKPEDTAAYYCAAHQPSGSYYSAEAYAYWGQGTQVTVSS
OUTPUT: 9.34
